Test system: SN12C
Assay: NCI tumour cell line growth inhibition, 48 h
Calls of active or inactive are those of the source. Rule as the data show it: active = GI50 up to about 1.1 µM and inactive = higher.
PROPERTY: GI50

Study these solved cases before continuing.
COCCOc1cc(C)cc(/C=C(C)/C=C/C2=C(C)CCCC2(C)C)n1    > 100 µM (inactive)
CO/C=C(\Br)c1ccc2c(c1)OCO2    > 100 µM (inactive)
COC(=O)[C@@H]1c2c(oc3cc(CO)cc(O)c3c2=O)C=C[C@H]1O    9.86 µM (inactive)
O=C(OC1CC(n2cc(F)c(=O)[nH]c2=O)OC1CSC(=O)c1ccccc1)c1ccccc1 (stereo not given)    28.1 µM (inactive)

# input for lookup
Prompt: Observed GI50 on SN12C for CC(=O)N1c2ccccc2C23CCN(C)CC4C(C)OCC(C4CC2=O)C13 (stereo not given) , please.
Completion: > 100 µM (inactive)
